assayExplanation: chemical genetic growth profiling, strain panel (AID 1159580);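 also: tested at 20 µM; growth read once vehicle control cultures reached saturation at 30 °C; 1 = growth at the plate median or of vehicle wells; lower values mean less growth of the strain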
conditionParameters: S. cerevisiae deletion strains, growth OD, locus YOR106W, strain vam3, active compounds read low
Among all 5,500 compounds or so, about 2,000 (36%) were called active. Roughly 18% stayed inconclusive and do not appear here. The list shows a part of the results.
Recorded measurements of normalized growth, one per entry
Give the value as a plain number.

Solved cases (5 shown):
compound	normalized growth
COc1cc([C@@H]2c3cc4c(cc3C(O[C@@H]3O[C@@H]5CO[C@@H](c6cccs6)OC5[C@H](O)[C@H]3O)C3COC(=O)[C@@H]32)OCO4)cc(OC)c1O (stereo partly specified)	1.02
O=C(O)/C=C(\CC(=O)O)C(=O)O	1.01
CC(=O)Oc1ccc(-c2cc(=O)c3c(OC(C)=O)cc(OC(C)=O)cc3o2)cc1	0.986
COc1cccc2c1cc([N+](=O)[O-])c1c(C(=O)O)cc3c(c12)OCO3	1.01
CC(=O)Oc1cc(-c2coc3cc(OC(C)=O)c(OC(C)=O)c(OC(C)=O)c3c2=O)cc(OC(C)=O)c1OC(C)=O	0.778

Below: the item to evaluate.
Quick one: normalized growth for CC(C)(C)C(=O)C(Oc1ccc(Cl)cc1)n1cncn1 (stereo unspecified) ? 0.211

====

assayExplanation: chemical genetic growth profiling, strain panel (AID 1159580);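 also: tested at 20 µM; growth read once vehicle control cultures reached saturation at 30 °C; 1 = growth at the plate median or of vehicle wells; lower values mean less growth of the strain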
conditionParameters: S. cerevisiae deletion strains, growth OD, locus YBR229C, strain ROT2
The whole screen tested about 5,500 compounds, of which about 2,000 (36%) were called active. Not shown: some 18% with an inconclusive outcome. Rule as the data show it: active = normalized growth mostly below about 0.91 (no sharp cut-off); inconclusive = no clear call, values can overlap the other calls; inactive = mostly above about 0.92. This is one part of the list.
Would you mind answering with one of these outcomes? 1 (active), -1 (inactive)

For orientation, consider the following solved cases.
compound	label
CC(=O)[C@H]1CCC2C3CC=C4C[C@@H](O)CC[C@]4(C)C3CC[C@@]21C (stereo partly specified)	-1
CN1CNc2c(c(=O)n(C)c(=O)n2C)C1	-1
Nc1nc(N)c2nc(-c3ccccc3)c(N)nc2n1	-1
CC(C)(C)C(=O)N1CCN(c2ncccc2C(F)(F)F)CC1	-1
CC(=O)c1csc(-c2ccc(C(F)(F)F)cc2)n1	-1
ClC(Cl)=C(c1ccc(Cl)cc1)c1ccc(Cl)cc1	-1
CCC(CCC(C)[C@H]1CCC2C3CC=C4C[C@@H](O)CC[C@]4(C)C3CC[C@@]21C)C(C)C (stereo partly specified)	-1
COc1ccc2cc3[n+](cc2c1OC)CCc1cc2c(cc1-3)OCO2	1
O=C(Nc1ccccc1SCc1cccc(C(F)(F)F)c1)c1c(F)cccc1Cl	-1
C=C1C2CC[C@@]3(C)[C@H](c4ccoc4)OC(=O)C[C@]13O[C@H]1CC(=O)C(C)(C)[C@H](C(O)C(=O)OC)[C@@]21C (stereo partly specified)	-1

What outcome does the record of this test show for O=C1NC(c2ccccc2Cl)Nc2ccccc21 (stereo unspecified) ? -1

Hi, sorry to bother you, what did the test record for Cc1cc(C(F)(F)F)c(C#N)c(=O)[nH]1 ? -1

What classification did CC1NC(=O)NC1=O (stereo unspecified) end up with in this test? -1

// param item: COc1cc2cc[n+]3cc4c(OC)c(OC)ccc4cc3c2cc1OC ; yields the recorded call -1

Tell me the recorded outcome of this test for C[n+]1cc2c3c(ccc2c2ccc4cc5c(cc4c21)OCO5)OCO3 . 1

// param item: N/C(=N/OS(=O)(=O)c1ccc(Cl)cc1)c1ccc(C(F)(F)F)cc1 ; yields the recorded call -1

meta.source: PubChem BioAssay AID1159580
